Catalogue of pKi readings, one per entry.
- target_desc: muPA-S190A (murine)
- test_protocol: enzyme inhibition (steady state, chromogenic substrate S-2444); about 2 nM enzyme (purified or conditioned medium of transfected cells) pre-incubated 15 min with varied peptide in HBS (10 mM HEPES pH 7.4, 140 mM NaCl) with 0.1% BSA at 37°C; substrate about KM; fit for competitive inhibition; highest peptide concentration 400 µM
pKi: −log10 of the molar value. Bridge positions count the residues as written; N and C are the ends. Ends that are not written are not given here.
quantity_kind: pKi

binder="CPAYSRYLDC (disulfide 1-10 (inferred)) [mupain-1]" quantity_kind=pKi test_result=5.80
binder="CPAYSRYLAC (disulfide 1-10 (inferred)) [Mupain-1 D9A]" quantity_kind=pKi test_result=5.52
